Ref: paper PMC10397247

Biological target: T1, 4H235-AA
T1 chain: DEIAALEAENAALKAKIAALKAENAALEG
Test: two-hybrid library CCmax;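 also: natural log of median RNA to DNA barcode read ratio; higher means stronger binding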
Details: mean of both orientations
Recorded interaction score for the following binders
The answer should be written as a number, with no unit following it.

Here's what some known entries look like.
1. DENAALEAENAALKAKIAALKAKIAALKG [4H1262-AA]	-0.797
2. DEIAALEAENAALEAEIAALEAKIAALEG [4H133-AA]	0.197
3. DENAALEAKIAALKAKIAALEAKNAALKG [4H1384-AA]	-1.3
4. DENAALEAKNAALEAKIAALKAEIAALEG [4H1449-AA]	-1.93
5. DENAALKAEIAALEAKNAALKAEIAALEG [4H1593-AA]	0.603
6. DENAALEAKIAALKAEIAALEAKIAALEG [4H1349-AA]	-2.02
7. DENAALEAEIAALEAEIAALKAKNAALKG [4H1040-AA]	-1.14

Could you now look at the following binder, please?
(Q) Identify measured interaction score corresponding to DENAALKAKIAALKAENAALEAKIAALKG [4H1878-AA]
(A) 0.899
